# measured.on: recombinant human Lp-PLA2 (Homo sapiens)
# Sequence (Q13093 22-441): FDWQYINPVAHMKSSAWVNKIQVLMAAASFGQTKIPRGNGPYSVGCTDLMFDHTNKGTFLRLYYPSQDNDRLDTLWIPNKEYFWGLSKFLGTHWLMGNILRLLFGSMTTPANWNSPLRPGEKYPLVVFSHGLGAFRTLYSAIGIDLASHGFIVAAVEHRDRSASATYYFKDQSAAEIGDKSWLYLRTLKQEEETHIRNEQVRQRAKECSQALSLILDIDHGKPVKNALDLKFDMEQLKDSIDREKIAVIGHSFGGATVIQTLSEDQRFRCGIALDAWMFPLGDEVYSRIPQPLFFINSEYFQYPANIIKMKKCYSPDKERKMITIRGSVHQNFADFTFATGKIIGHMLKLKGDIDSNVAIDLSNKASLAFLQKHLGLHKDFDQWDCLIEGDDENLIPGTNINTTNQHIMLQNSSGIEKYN
# assay.details: Recombinant human Lp-PLA2 assay (rhLp-PLA2, PED6 assay)
# Assay type: biochemical
# condition.context: read-out: pIC50 values in the recombinant human Lp-PLA2 assay (converted)
property: IC50

Asked: Reported IC50 for recombinant human Lp-PLA2 (Homo sapiens), given [2H]C([2H])(Oc1cc2n(c(=O)n1)CCC(C)(C)N2C)c1cc(F)c(F)cc1F ?
Given back: ≤ 1 nM

Asked: Cool, now C[C@@H]1CCn2c(cc(OCc3ccc(Oc4cnc(C(F)(F)F)nc4)c(F)c3)nc2=O)N1C
Given back: ≤ 1 nM

Asked: Cool, now C[C@@H]1CCn2c(cc(OCc3ccc(Oc4ccc(F)c(F)c4)c(F)c3)nc2=O)N1C
Given back: ≤ 1 nM

Asked: Cool, now C[C@H]1CCn2c(cc(OCc3ccc(Oc4cccc(C(F)(F)F)c4)c(C#N)c3)nc2=O)N1C
Given back: ≤ 1 nM

Asked: Cool, now C[C@@H]1CCn2c(cc(OCc3ccc(Oc4cccc(F)c4)c(C#N)c3)nc2=O)N1C
Given back: ≤ 1 nM

Asked: Cool, now C[C@H]1CCn2c(cc(OCc3cc(F)c(F)c(F)c3)nc2=O)N1C
Given back: ≤ 1 nM

Asked: Cool, now C[C@@H]1CCn2c(cc(OCc3cc(F)c(Oc4cccc(C(F)(F)F)c4)c(F)c3)nc2=O)N1C
Given back: ≤ 1 nM

Asked: Cool, now C[C@H]1CCn2c(cc(OCc3cc(F)c(Oc4ccnc(C(F)(F)F)c4)c(F)c3)nc2=O)N1C
Given back: ≤ 1 nM

Asked: Cool, now CCN1c2cc(OCc3cc(F)c(F)c(F)c3)nc(=O)n2CC[C@@H]1C
Given back: ≤ 1 nM

Asked: Cool, now C[C@@H]1CCn2c(cc(OCc3cc(F)c(Oc4ccc(C(F)(F)F)nc4)c(F)c3)nc2=O)N1C
Given back: ≤ 1 nM

Asked: Cool, now C[C@H]1CCn2c(cc(OCc3cc(F)c(Oc4cccc(F)c4)c(F)c3)nc2=O)N1C
Given back: ≤ 1 nM

Asked: Cool, now C[C@H]1CCn2c(cc(OCc3ccc(Oc4cnc(C(F)(F)F)nc4)c(F)c3)nc2=O)N1C
Given back: ≤ 1 nM

Asked: Cool, now CN1c2cc(OCc3cc(F)c(Oc4ccc(C(F)(F)F)nc4)c(F)c3)nc(=O)n2CCC1(C)C
Given back: ≤ 1 nM

Asked: Cool, now C[C@@H]1CCn2c(cc(OCc3cc(F)c(OC4CCCCC4)c(F)c3)nc2=O)N1C
Given back: ≤ 1 nM

Asked: Cool, now C[C@H]1CCn2c(cc(OCc3ccc(Oc4ccc(C(F)(F)F)nc4)c(F)c3)nc2=O)N1C
Given back: ≤ 1 nM

Asked: Cool, now C[C@@H]1CCn2c(cc(OCc3ccc(Oc4ccc(F)c(C(F)(F)F)c4)cc3)nc2=O)N1C
Given back: ≤ 1 nM

Asked: Cool, now CN1c2cc(OCc3ccc(Oc4ccnc(C(F)(F)F)c4)c(F)c3)nc(=O)n2CCC1(C)C
Given back: ≤ 1 nM

Asked: Cool, now C[C@@H]1CCn2c(cc(OCc3cc(F)c(Oc4cncc(C(F)(F)F)c4)c(F)c3)nc2=O)N1C
Given back: ≤ 1 nM

Asked: Cool, now CC1CCn2c(cc(OCc3cc(F)c(F)c(F)c3)nc2=O)N1C (stereo not shown)
Given back: ≤ 1 nM

Asked: Cool, now C[C@H]1CCn2c(cc(OCc3ccc(Oc4ccc(C(F)(F)F)c(F)c4)cc3)nc2=O)N1C
Given back: ≤ 1 nM

Asked: Cool, now C[C@@H]1CCn2c(cc(OCc3ccc(Oc4ccc(Cl)c(F)c4)c(C#N)c3)nc2=O)N1C
Given back: ≤ 1 nM

Asked: Cool, now C[C@@H]1CCn2c(cc(OCc3ccc(Oc4ccc(C(F)(F)F)nc4)c(C#N)c3)nc2=O)N1C
Given back: ≤ 1 nM

Asked: Cool, now [2H]C([2H])(Oc1cc2n(c(=O)n1)CCC(C)(C)N2C)c1cccc(F)c1F
Given back: ≤ 1 nM

Asked: Cool, now CN1c2cc(OCc3ccc(Oc4cccc(F)c4)c(C#N)c3)nc(=O)n2CCC1(C)C
Given back: ≤ 1 nM

Asked: Cool, now C[C@@H]1CCn2c(cc(OCc3cc(F)c(Oc4ccnc(C(F)(F)F)c4)c(F)c3)nc2=O)N1C
Given back: ≤ 1 nM

Asked: Cool, now CN1c2cc(OCc3ccc(Oc4ccc(F)c(F)c4)c(C#N)c3)nc(=O)n2CCC1(C)C
Given back: ≤ 1 nM

Asked: Cool, now C[C@H]1CCn2c(cc(OCc3ccc(Oc4cccc(F)c4)c(C#N)c3)nc2=O)N1C
Given back: ≤ 1 nM

Asked: Cool, now C[C@@H]1CCn2c(cc(OCc3cc(F)c(Oc4ccc(F)c(Cl)c4)c(F)c3)nc2=O)N1C
Given back: ≤ 1 nM

Asked: Cool, now C[C@@H]1CCn2c(cc(OCc3ccc(Oc4ccc(C(F)(F)F)cc4)c(C#N)c3)nc2=O)N1C
Given back: ≤ 1 nM

Asked: Cool, now C[C@@H]1CCn2c(cc(OCc3cc(F)c(Oc4ccc(Cl)cc4)c(F)c3)nc2=O)N1C
Given back: ≤ 1 nM

Asked: Cool, now CC(C)N1c2cc(OCc3ccc(F)c(F)c3)nc(=O)n2CC[C@H]1C
Given back: ≤ 1 nM
